Value source: ChEMBL document CHEMBL5576081

Target: Epidermal growth factor receptor (Homo sapiens, UniProt P00533, L858R/T790M)
Sequence (P00533 25-1210 T790M/L858R limits assumed): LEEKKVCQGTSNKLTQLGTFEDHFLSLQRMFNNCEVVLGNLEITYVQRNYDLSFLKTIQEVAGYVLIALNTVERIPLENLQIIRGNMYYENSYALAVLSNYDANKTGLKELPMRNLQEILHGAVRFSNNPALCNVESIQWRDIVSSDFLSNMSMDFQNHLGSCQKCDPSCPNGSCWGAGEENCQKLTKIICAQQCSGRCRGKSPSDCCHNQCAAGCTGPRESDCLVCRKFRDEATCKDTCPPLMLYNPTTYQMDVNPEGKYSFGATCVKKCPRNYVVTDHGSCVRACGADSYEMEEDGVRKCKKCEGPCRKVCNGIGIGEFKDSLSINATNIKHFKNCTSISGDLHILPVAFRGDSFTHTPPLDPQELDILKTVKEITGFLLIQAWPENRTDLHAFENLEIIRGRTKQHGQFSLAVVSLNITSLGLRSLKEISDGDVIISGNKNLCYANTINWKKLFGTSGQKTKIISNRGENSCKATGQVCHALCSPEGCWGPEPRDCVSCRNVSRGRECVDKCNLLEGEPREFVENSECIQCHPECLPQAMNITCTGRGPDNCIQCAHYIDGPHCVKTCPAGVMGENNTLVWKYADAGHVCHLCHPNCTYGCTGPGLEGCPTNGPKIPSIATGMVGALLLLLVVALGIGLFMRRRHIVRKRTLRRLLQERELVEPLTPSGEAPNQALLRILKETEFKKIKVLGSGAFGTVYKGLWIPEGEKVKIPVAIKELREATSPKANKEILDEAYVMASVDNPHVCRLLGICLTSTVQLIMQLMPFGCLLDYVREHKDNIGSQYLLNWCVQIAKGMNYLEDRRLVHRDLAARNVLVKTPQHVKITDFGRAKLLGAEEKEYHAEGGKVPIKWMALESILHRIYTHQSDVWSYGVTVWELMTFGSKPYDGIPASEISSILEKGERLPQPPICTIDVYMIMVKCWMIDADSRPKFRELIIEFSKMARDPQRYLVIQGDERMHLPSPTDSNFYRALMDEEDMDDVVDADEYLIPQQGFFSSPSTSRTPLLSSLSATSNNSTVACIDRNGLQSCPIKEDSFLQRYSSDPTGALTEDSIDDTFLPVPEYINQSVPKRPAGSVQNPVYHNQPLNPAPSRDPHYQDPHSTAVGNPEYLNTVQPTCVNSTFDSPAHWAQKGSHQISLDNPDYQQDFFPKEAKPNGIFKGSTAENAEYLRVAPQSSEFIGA
Assay: Inhibition of EGFR L858R/T790M mutant (unknown origin)
READOUT TYPE: IC50 (nM)
// units = nM; emit number, no label

Find the recorded IC50 belonging to `C=CC(=O)Nc1cc(Nc2nccc(-c3csc4ccccc34)n2)c(OC)cc1N(C)CCN(C)C` and report it. 0.26

###

Assay: Antiproliferative activity against mouse KC-0116 cells
Assay type: toxicity, cell-based
READOUT TYPE: pIC50
In plain terms, pIC50 is the concentration in mol/L turned into minus its base-10 logarithm.

# count of solved cases: 3
smiles=COc1cc(N2CCC(N3CCN(C)CC3)CC2)ccc1Nc1ncc(Cl)c(Nc2ccccc2P(C)(C)=O)n1 reported_value=6.46
smiles=CN(C)C1CCN(c2ccc(Nc3nccc(-c4cn(C)c5ccccc45)n3)cc2)CC1 reported_value=6.40
smiles=Cn1cc(-c2ccnc(Nc3ccc(N4CCC(N5CCOCC5)CC4)cc3)n2)c2ccccc21 reported_value=5.77

Continue with the next compound.
Find the recorded pIC50 belonging to `Cn1cc(-c2ccnc(Nc3ccc(N4CCCCC4)cc3)n2)c2ccccc21` and report it. 5.00

###

System: NCI-H292
Experiment: Cytotoxicity against human NCI-H292 cells assessed as reduction in cell viability incubated for 48 hrs by CCK-8 assay
Type: functional, cell-based
Details: NCI-H292, 48 h
READOUT TYPE: pIC50
In plain terms, pIC50 is the concentration in mol/L turned into minus its base-10 logarithm.

# count of solved cases: 2
smiles=C=CC(=O)Nc1cc(Nc2nccc(-c3cn(C)c4ccccc34)n2)c(OC)cc1N(C)CCN(C)C reported_value=5.70
smiles=C=CC(=O)Nc1cc(Nc2nccc(-c3csc4ccccc34)n2)c(OC)cc1N(C)CCN(C)C reported_value=5.36

Param readout= pIC50; system= NCI-H292; entry= `C=CC(=O)Nc1cc(Nc2ncc(F)c(-c3csc4ccccc34)n2)c(OC)cc1N(C)CCNC(C)C` ; returns value. 5.40

Param readout= pIC50; system= NCI-H292; entry= `C=CC(=O)Nc1cc(Nc2nccc(-c3csc4ccccc34)n2)c(OC)cc1N(C)CCCN(C)C` ; returns value. 5.40

###

Catalogue of pIC50 readings, one per entry.
Assay: Antiproliferative activity against mouse KC-0116 cells
Type: toxicity, cell-based
In plain terms, pIC50 is the concentration in mol/L turned into minus its base-10 logarithm.

# count of solved cases: 5
smiles=CN1CCN(C2CCN(c3ccc(Nc4nccc(-c5cn(C)c6ccccc56)n4)cc3NS(=O)(=O)C3CC3)CC2)CC1 reported_value=6.77
smiles=Cn1cc(-c2ccnc(Nc3ccc(N4CCOCC4)cc3)n2)c2ccccc21 reported_value=5.15
smiles=COc1cc(N(C)CCN(C)C)c(NC(=O)CNC(=O)OC(C)(C)C)cc1Nc1nccc(-c2cn(C)c3ccccc23)n1 reported_value=5.89
smiles=COc1cc(N(C)CCN(C)C)c(NC(=O)CN)cc1Nc1nccc(-c2cn(C)c3ccccc23)n1 reported_value=5.88
smiles=COc1cc(N2CCC(N(C)C)CC2)c(NC(=O)CO)cc1Nc1nccc(-c2cn(C)c3ccccc23)n1 reported_value=6.34

Find the recorded pIC50 belonging to `CN(C)C1CCN(c2ccc(Nc3nccc(-c4cn(C)c5ccccc45)n3)cc2NS(C)(=O)=O)CC1` and report it. 6.80

Find the recorded pIC50 belonging to `CN(C)C1CCN(c2ccc(Nc3nccc(-c4cn(C)c5ccccc45)n3)cc2NS(=O)(=O)C2CC2)CC1` and report it. 6.62

Find the recorded pIC50 belonging to `Cn1cc(-c2ccnc(Nc3cccc(NC(=O)CCN)c3)n2)c2ccccc21` and report it. 5.30

Find the recorded pIC50 belonging to `COCC(=O)Nc1cc(Nc2nccc(-c3cn(C)c4ccccc34)n2)c(OC)cc1N1CCC(N(C)C)CC1` and report it. 6.34
